assay: Pharmacokinetics study in mice; assay type: in vivo, ICR mice; conditions: both sexes, ICR, mouse, plasma, po, p.o. 10 mg/kg
metric: Tmax (h)

{"molecule": "C=CC(=O)Nc1cc(N(C(=O)NCc2ccccc2)[C@H]2CC[C@H](Nc3ccc(C#N)cn3)CC2)ccc1N1CCC(N(C)C)CC1", "metric": "Tmax", "numeric.value": 1.5}
{"molecule": "C=CC(=O)Nc1cc(N(C(=O)NCc2ccccc2)[C@H]2CC[C@H](Nc3ccc(C#N)cn3)CC2)ccc1N1CCN(C)[C@@H](C)C1 [Compound 14h]", "metric": "Tmax", "numeric.value": 0.5}

====

assay: Pharmacokinetics study in mice; type: in vivo, ICR mice; conditions: both sexes, ICR, mouse, plasma, ip, i.p. 2.5 mg/kg

{"compound": "C=CC(=O)Nc1cc(N(C(=O)NCc2ccccc2)[C@H]2CC[C@H](Nc3ccc(C#N)cn3)CC2)ccc1N1CCC(N(C)C)CC1 [YJZ5118]", "half-life / h": 1.46}
